Cited source for all entries: ChEMBL document CHEMBL5291721

Can you tell me AC50 for the items I'm about to list?

Let me check: NCC(CC(=O)O)c1ccccc1 (stereo unspecified) , system 5-hydroxytryptamine receptor 1A (Homo sapiens, UniProt P08908), measured AC50 is > 30 µM

Tested on 5-hydroxytryptamine receptor 1A (Homo sapiens, UniProt P08908), the item Cc1onc(-c2ccccc2)c1C(=O)N[C@@H]1C(=O)N2[C@@H]1SC(C)(C)[C@@H]2C(=O)O showed AC50 equal to > 30 µM

For the compound CCn1cc(C(=O)O)c(=O)c2cc3c(cc21)OCO3 , the measured AC50 on 5-hydroxytryptamine receptor 1A (Homo sapiens, UniProt P08908) was > 30 µM

Measured AC50 (5-hydroxytryptamine receptor 1A (Homo sapiens, UniProt P08908)), entry O=C(O)c1cc(/N=N/c2ccc(O)c(C(=O)O)c2)ccc1O : > 30 µM

Assay 5-hydroxytryptamine receptor 1A (Homo sapiens, UniProt P08908), sample CN1CCC(=C2c3ccccc3Sc3ccccc32)CC1 , AC50 read: 0.0145 µM

Measured AC50 (5-hydroxytryptamine receptor 1A (Homo sapiens, UniProt P08908)), entry O=C(O)CCCCC1CCSS1 (stereo unspecified) : > 30 µM
